- system-name: H275Y mutant A(H1N1)pdm09 virus, neuraminidase (NA) (Influenza A virus, UniProt A0A0X9QTS2, H275Y)
assay-readout: IC50 (nM)
One number for each entry, in nM.

What the record says about CCC(CC)[C@H](NC(C)=O)[C@@H]1[C@H](O)[C@@H](C(=O)O)C[C@H]1N=C(N)N [Peramivir, peramivir] : IC50 is 21.9

From: paper PMC7055873
